All values here come from patent US10479780B2.

Measured on: human Src enzyme (Homo sapiens, UniProt P12931)
Construct: purchased Carna Biosciences, Inc. 08-173
Sequence (P12931 whole entry): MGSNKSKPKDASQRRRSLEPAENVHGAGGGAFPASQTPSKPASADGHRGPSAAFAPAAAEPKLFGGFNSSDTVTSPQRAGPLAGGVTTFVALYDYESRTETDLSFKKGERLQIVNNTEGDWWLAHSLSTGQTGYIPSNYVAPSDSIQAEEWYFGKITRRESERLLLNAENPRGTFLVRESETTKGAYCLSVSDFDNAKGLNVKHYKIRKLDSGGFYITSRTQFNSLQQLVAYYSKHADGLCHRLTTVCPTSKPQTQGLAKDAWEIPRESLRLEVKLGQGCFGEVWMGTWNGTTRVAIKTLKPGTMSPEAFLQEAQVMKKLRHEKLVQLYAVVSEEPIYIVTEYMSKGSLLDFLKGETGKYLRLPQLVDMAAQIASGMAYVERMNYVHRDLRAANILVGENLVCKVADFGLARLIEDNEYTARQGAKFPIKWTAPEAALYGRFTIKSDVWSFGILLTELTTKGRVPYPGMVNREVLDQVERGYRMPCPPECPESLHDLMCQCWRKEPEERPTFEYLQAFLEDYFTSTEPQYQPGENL
Experimental details: Src enzyme inhibitory activity (time-resolved fluorometry, biotinylated peptide phosphorylation)
Format: biochemical
Details: biotinylated peptide phosphorylation, read-out: SRC_IC50
Would you mind telling me the reported pIC50 of each entry?
Numbers only, as −log10 of the molar value.

Cc1cc2cc(C(=O)c3cnn(-c4ccc(Oc5ccccc5F)cc4C)c3N)[nH]c2cc1NS(=O)(=O)CCCF: 7.55
Cc1cnc(F)c(S(=O)(=O)Nc2cc3[nH]c(C(=O)c4cnn(-c5cnc(Oc6c(F)cccc6F)cc5C)c4N)cc3cc2OCC(F)F)c1: 6.27
Cc1cc(Oc2ccccc2F)ccc1-n1ncc(C(=O)c2cc3cc(OCC(F)F)c(NS(=O)(=O)c4cc(F)cc(F)c4)cc3[nH]2)c1N: 6.55

Look at each compound and report its pIC50.
1. Cc1cc(Oc2ccccc2F)ccc1-n1ncc(C(=O)c2cc3cc(F)c(NS(=O)(=O)NCCO)cc3[nH]2)c1N
2. Cc1cc(Oc2c(F)cccc2F)ncc1-n1ncc(C(=O)c2cc3cc(OCC(F)F)c(N4CCOC4=O)cc3[nH]2)c1N
3. Cc1cc(Oc2cccc(F)c2F)ccc1-n1ncc(C(=O)c2cc3cc(NS(C)(=O)=O)c(F)cc3[nH]2)c1N

Return:
[7.80, 7.96, 7.82]
